Values from PubChem BioAssay (NCI)

Each entry below carries its reported growth.
- Tested on: SK-MEL-5 melanoma
- TEST DESCRIPTION: NCI-60 one-dose screen, 48 h (100 = growth as untreated, 0 = no growth, -100 = all killed)
- STATED CONDITIONS: 10 µM unless noted
Compounds without any hit were thinned out: in the full panel of roughly 83,000, 20% have a hit.
Could you give me the number in %? Just the number is fine.

Known results for molecules:
CHEMICAL STRUCTURE: Clc1ccc(-c2cnc3c(-c4ccnc(N5CCNCC5)c4)cnn3c2)cc1
growth (%): 73.8
--
CHEMICAL STRUCTURE: N=c1nc(N2CCCCC2)cc(N)n1O
growth (%): 94.8

Consider the additional molecule presented here.
Q: Look up growth with SK-MEL-5 melanoma for this molecule: COc1cccc(-c2nc3sccn3c2-c2ccnc(NCCN3CCCN(C)S3(=O)=O)n2)c1
A: 84.1

* * *

- Tested on: SNB-19 CNS
- TEST DESCRIPTION: NCI-60 one-dose screen, 48 h
- STATED CONDITIONS: 10 µM unless noted
This is part of a sample that, as a whole, favours compounds with a hit. Of some 83,000 tested, about 20% had one in any assay. The source made the active and inactive calls. How the source made its calls: active means growth percent below 10; inactive means the rest.
Just give me one of these, please: 1.0 = active, 0.0 = inactive

Take a look at these entries with their results.
COMPOUND: CC1OC(n2c3ccccc3c3c4c(c5c6ccccc6[nH]c5c32)C(=O)N(CCN2CCOCC2)C4=O)CC(O)C1O (configuration not stated)
ASSIGNED CATEGORY: 0.0
//
COMPOUND: COc1cc2c(=O)n(CCCN(C)C)c3c4cc[nH]c4ncc3c2cc1OC
ASSIGNED CATEGORY: 0.0

Q: Assay outcome for COc1cc(/C=C/c2cc(/C=C/c3ccc(O)c(OC)c3)n(C(=O)c3ccccc3Br)n2)ccc1O : what was it?
A: 0.0

Q: Now this one: COc1ccc(C(=O)OC2C(OC3C(O)COC(O[C@H]4C[C@H]5[C@@H]6CC=C7C[C@@H](O)CC[C@]7(C)[C@H]6CC[C@]5(C)[C@H]4[C@H](C)C(=O)CCC(C)C)C3OC(N)=O)OCC(O)C2O)cc1 (some centres not stated)
A: 1.0

Q: Can you check S=C(S)Oc1cccc2cccnc12 next?
A: 0.0

Q: And the next one, c1ccc2c(N=NSc3ncnc4nc[nH]c34)c3ccccc3nc2c1 ?
A: 0.0

Q: Cool, now CC(C)N(C(=S)SSC(=S)N(C(C)C)C(C)C)C(C)C
A: 0.0

Q: Same question for CC(=O)Oc1c(Cl)c(Cl)c(Cl)c(Cl)c1Cl please.
A: 0.0

Q: Same question for CCCCCCCCCCCCCCCCCC1=NCCN1CCO please.
A: 0.0

Q: Another compound to check: O=[N+]([O-])c1ccc(Sc2nc(Cl)nc(NC3CCCC3)n2)cc1
A: 1.0

Q: Now try CCOC(=O)C(Cc1ccccc1)n1c(O)c(/C=N/c2ncc(Cc3ccc(Cl)cc3Cl)s2)sc1=S (configuration not stated) .
A: 0.0

Q: Let us now turn to O=c1c2cc(Br)cc(Br)c2nc(-c2ccc(Cl)cc2)n1/N=C\c1ccccc1F
A: 0.0

* * *

- Test system: SK-MEL-5 melanoma
- TEST DESCRIPTION: NCI-60 one-dose screen, 48 h (100 = growth as untreated, 0 = no growth, -100 = all killed)
- STATED CONDITIONS: 10 µM unless noted
About 83,000 compounds went through this panel and 20% of them were active in at least one assay; those are over-represented in the sample as a whole.
OBSERVATION TYPE: growth (%)
Just the number in %, nothing appended.

Worked cases, answers included:
CHEMICAL STRUCTURE: CCC(=O)NC1=C(Cl)C(=O)C(NC(=O)CC)=C(Cl)C1=O
growth / %: 96.3

CHEMICAL STRUCTURE: COc1cc(Cl)cc(-c2nn(C(=O)NCCN3CCOCC3)cc2-c2ccncc2)c1
growth / %: 35.5

CHEMICAL STRUCTURE: Clc1nnc2c3ccccc3ccn12
growth / %: 97.7

Q: Any idea what growth was measured for O=C1Nc2ccc(Cl)cc2/C1=C\c1c(-c2ccc(F)cc2)nc2ccccn12 ?
A: -28.4

* * *

- Test system: 786-0 renal
- TEST DESCRIPTION: NCI-60 one-dose screen, 48 h
- STATED CONDITIONS: 10 µM unless noted
About 83,000 compounds went through this panel and 20% of them were active in at least one assay; those are over-represented in the sample as a whole. The source made the active and inactive calls. The calls were made as follows: active = growth percent below 10; inactive = the rest.
Your answer must be one of the following: active, inactive

The examples below pair each entry with its known result.
CHEMICAL STRUCTURE: C=CCN(CC#N)CC=C
ASSIGNED CATEGORY: inactive

CHEMICAL STRUCTURE: CCCCCc1c(C)[nH]c(/C=C2\N=C(c3ccc[nH]3)C=C2Oc2ccc(OC)cc2)c1C
ASSIGNED CATEGORY: active

Switching to the query record.
Q: Which outcome was assigned to COc1cc2ccc(C(C)=O)cc2cc1OC in this test?
A: inactive

* * *

- System: HCC-2998 colon
- TEST DESCRIPTION: NCI-60 one-dose screen, 48 h
- STATED CONDITIONS: 10 µM unless noted
The panel holds about 83,000 compounds, 20% with a hit somewhere; the sample as a whole holds those more often. Calls of active or inactive are those of the source. The calls were made as follows: active = growth percent below 10; inactive = the rest.
Give one outcome, nothing more. List: TRUE = active, FALSE = inactive

MOLECULE: CCOC(=O)C1OC2(CCCC2)OC1C(=O)OCC (stereo unspecified)
ASSIGNED CATEGORY: FALSE

Q: # outcome recorded in this test, key = CC(C)c1ccc(-c2cnc3nonc3n2)cc1
A: FALSE

Q: Again, but for Oc1ccc(-c2nc3ccccc3s2)cc1CN(Cc1ccccn1)Cc1ccccn1
A: TRUE

Q: Thanks! And COc1ccc(-c2nc(SCCC(C)C)nc(Nc3ccc(C(=O)O)cc3)c2C#N)cc1 ?
A: FALSE

Q: Moving on to O=C1N(Cc2ccccc2Cl)c2ccccc2C12NN=C(c1ccccc1)S2 (stereo unspecified)
A: FALSE

Q: # iterate: COc1ccc(Nc2nc(N)nc3c(=O)[nH]ccc23)cc1
A: FALSE

* * *

- System: HOP-92 NSCLC
- TEST DESCRIPTION: NCI-60 one-dose screen, 48 h
- STATED CONDITIONS: 10 µM unless noted
About 83,000 compounds went through this panel and 20% of them were active in at least one assay; those are over-represented in the sample as a whole. The source made the active and inactive calls. The calls were made as follows: active = growth percent below 10; inactive = the rest.
Give your call using only these classes: 1 = active, -1 = inactive

Worked set:
COMPOUND: C[N+](C)(C)CCCCCCCCCC[N+](C)(C)C
ASSIGNED CATEGORY: -1

COMPOUND: COc1cc2c(cc1OC)-c1cc(OC)c(OC)cc1C(CN(C)C)C2 (centres undefined)
ASSIGNED CATEGORY: -1

Q: Could you check what this test reported for O=C(N/N=C/c1ccc([N+](=O)[O-])o1)c1ccc(O)cc1 ?
A: -1

Q: Try CCS(=O)(=O)Nc1cccc(Nc2c3cccc(C)c3nc3c(C)cccc23)c1OC next.
A: 1

* * *

Listed next: entries and their corresponding growth.
- System: SF-268 CNS
- TEST DESCRIPTION: NCI-60 one-dose screen, 48 h (100 = growth as untreated, 0 = no growth, -100 = all killed)
- STATED CONDITIONS: 10 µM unless noted
This is part of a sample that, as a whole, favours compounds with a hit. Of some 83,000 tested, about 20% had one in any assay.
Answer with a number only, understood to be in %.

Solved cases (4 shown):
COMPOUND: CC(C)(C)c1ccc(C(=O)Nc2sc3cc(O)ccc3c2C(N)=O)cc1
VALUE UNITS: %
growth: 92.4
--
COMPOUND: COc1cc(NC(=O)CSc2nc3ccc(Cl)cc3c(=O)n2-c2ccccc2)cc(OC)c1OC
VALUE UNITS: %
growth: 90.9
--
COMPOUND: CCOC(=O)c1cnc(SCC)nc1SC#N
VALUE UNITS: %
growth: 103
--
COMPOUND: COc1cc(NC(=O)CSc2nc3ccc(Cl)cc3c(=O)n2Cc2ccccc2)cc(OC)c1OC
VALUE UNITS: %
growth: 59.3

Q: Find the measured growth: item COc1ccc(C2NC(=O)c3cc4c(cc3N2)OCO4)cc1 (stereo not given) , target or system SF-268 CNS.
A: 39.6

* * *

- System: COLO 205 colon
- TEST DESCRIPTION: NCI-60 one-dose screen, 48 h
- STATED CONDITIONS: 10 µM unless noted
Compounds without any hit were thinned out: in the full panel of roughly 83,000, 20% have a hit. The source made the active and inactive calls. The calls were made as follows: active = growth percent below 10; inactive = the rest.
# valid calls are yes for active, no for inactive; nothing else

As a guide, the following entries are already answered.
COMPOUND: COc1cc(C2CC(c3ccc(Cl)cc3)=NN2C(C)=O)ccc1Oc1ccnc2cc(Cl)ccc12 (stereo not given)
SYSTEM NAME: COLO 205 colon
ASSIGNED CATEGORY: no
--
COMPOUND: CC(C)=CC[C@@H]1CC2(CC=C(C)C)C(=O)C(OC3(C(=O)c4ccccc4)C(=O)C4(CC=C(C)C)C[C@@H](CC=C(C)C)C(C)(C)C(CC=C(C)C)(C4=O)C3=O)(C(=O)c3ccccc3)C(=O)C(CC=C(C)C)(C2=O)C1(C)C (stereo not given in full)
SYSTEM NAME: COLO 205 colon
ASSIGNED CATEGORY: yes
--
COMPOUND: CCc1c(C)c2ccc(O)c(-c3cc(-c4ccccc4)c(C#N)c(=O)[nH]3)c2oc1=O
SYSTEM NAME: COLO 205 colon
ASSIGNED CATEGORY: no
--
COMPOUND: C[C@H](NC(=O)c1snnc1C1CC1)c1c(F)cccc1Cl
SYSTEM NAME: COLO 205 colon
ASSIGNED CATEGORY: no
--
COMPOUND: CCN(CCC#N)c1ccccc1
SYSTEM NAME: COLO 205 colon
ASSIGNED CATEGORY: no

Q: What was the test verdict on COc1ccc(C(=O)OC2C(OC3C(O)COC(O[C@H]4C[C@H]5[C@@H]6CC=C7C[C@@H](O)CC[C@]7(C)[C@H]6CC[C@]5(C)[C@H]4[C@H](C)C(=O)CCC(C)C)C3OC(C)=O)OCC(O)C2O)cc1 (stereo not given in full) ?
A: yes

Q: Also COc1cc(/C=C/c2cc(/C=C/c3ccc(O)c(OC)c3)n(C(=O)Nc3ccc(F)c(Cl)c3)n2)ccc1O ?
A: yes

Q: Now the same for CC(C)CC1NC(=O)C(CC(C)C)N(CO)C1=O (stereo not given)
A: no

Q: Field entry: COc1ccccc1CNCCCN1C(=O)c2ccc3c4c(ccc(c24)C1=O)C(=O)N(CCCOCCCCOCCCN)C3=O
A: yes

Q: Now consider CC(C)[C@@H]1C=C2CC[C@H]3[C@](C)(CN)CCC[C@]3(C)[C@H]2CC1 and answer again.
A: yes

Q: Request: O=C1NN(C(=O)c2ccccc2)C(c2ccc(Cl)c(Cl)c2)=C/C1=C\c1ccccc1[N+](=O)[O-]
A: yes

Q: Here is the next compound: CS(=O)(=O)c1ccc(C(=O)N/N=C/c2cccc3ccccc23)cc1
A: no

Q: Please give the result for CC(C)CCSc1nc(-c2ccc(F)cc2)c(C#N)c(N2CCCCC2)n1 too.
A: no

Q: Cc1csc(N/N=C/c2ccncc2)n1 ?
A: no

Q: Follow-up entry: Cc1nc(N)nc2c1CCC(Nc1ccccc1)S2 (stereo not given)
A: no

Q: Check O=C(O/C(=C/c1ccccc1)C(F)(F)F)c1ccccc1 too.
A: no

Q: Next: COc1cc(/C=C/c2cc(/C=C/c3ccc(O)c(OC)c3)n(C(=O)c3ccccc3Br)n2)ccc1O
A: no
